Form field: OD450 nm (one value per entry).
Target or system: T1, polypeptide GC3pep (human)
T1 construct: also called membrane proximal polypeptide GC3pep
T1 peptide: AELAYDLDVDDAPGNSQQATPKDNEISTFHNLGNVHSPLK
Method: ELISA, GC3pep coated, antibody 0.1 nM;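 note: antibody allowed to bind the coated plate 2 h at 37 °C, then detected via HRP-conjugated secondary antibody and TMB development for 10 min, stopped with HCl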
Give just the numeric value; OD450 nm need not be written.

{"Binder": "F1.2.14 (antibody, human IgG1, kappa, V domains shown, human-murine chimeric antibody) VH: RVQLQQSGAELVKPGASVRMSCKASGYTFTAYSIEWMKQNLGKSLEWIGNFRPYNDDTKYNENFKGRATLTVEKSSATVYLELSRLTSDDSAVYYCARSGPTDYFDYWGQGTTLIVSS VL: DIQMTQSPASLSASVGETVTITCRASDNIYSYLAWYQQKQGQSPQLLVYNAKTLAEGVPSRFSGSGSVTQFSLKIISLQPEDFGTYYCQHHFGTPRTFGGGTKLEIKR", "Measurement name": "OD450 nm", "Measured number": 0.05}

Consider the record given below.
**Q:** Give the measured OD450 nm of F1.145.22 (antibody, human IgG1, kappa, V domains shown, human-murine chimeric antibody) VH: QVQLQQSGTDLARPGASVKLSCKASGYTFTSFGISWVKQRTGQGLEWIGEIYPRSGSPYYNEKFTGKATLTADKSSSTAYMELRSLTSEDSAVYFCAKDFGSSYVFDYWGQGTALTVSS VL: DIQMTQSPASLSASVGETVTITCRASENIYSYLTWYQQKQGKSPQLLVYNAKTLAEGVPSRFSGSGSGTQFSLKINSLQPEDFGTYYCQHHYGTPPTFGTGTKLDLKR .
**A:** 0.04
